- Species on record: Rattus norvegicus
- TEST: Open TG-GATES - Regimen: Daily Repeat
- Assay type: toxicity, organism-based, Sprague-Dawley
- Set-up: regimen Daily Repeat, gender Male, age 6 weeks
- COND: in vivo, po, 100 mg/kg, […], tissue Plasma, route gavage, dose level Low, time 7 day
For each entry below, report its A/G value.
In your answer, state the number alone without any accompanying words.

For reference, reported A/G for "O=C(OC[C@H]1O[C@@H](OC(=O)c2cc(O)c(O)c(OC(=O)c3cc(O)c(O)c(O)c3)c2)[C@H](OC(=O)c2cc(O)c(O)c(OC(=O)c3cc(O)c(O)c(O)c3)c2)[C@@H](OC(=O)c2cc(O)c(O)c(OC(=O)c3cc(O)c(O)c(O)c3)c2)[C@@H]1OC(=O)c1cc(O)c(O)c(OC(=O)c2cc(O)c(O)c(O)c2)c1)c1cc(O)c(O)c(OC(=O)c2cc(O)c(O)c(O)c2)c1" stands at 1.5

For reference, reported A/G for "CN/C(=N/CCSCc1nc[nH]c1C)NC#N" stands at 1.5

For reference, reported A/G for "Cc1nnc2n1-c1ccc(Cl)cc1C(c1ccccc1Cl)=NC2" stands at 0.9

For reference, reported A/G for "CNC(=C[N+](=O)[O-])NCCSCc1ccc(CN(C)C)o1" stands at 1.5

###

For each entry below, report its MCV value.
- Species on record: Rattus norvegicus
- TEST: Open TG-GATES - Regimen: Single
- Format: toxicity, organism-based, Sprague-Dawley
- Set-up: regimen Single, gender Male, age 6 weeks
- COND: in vivo, po, 100 mg/kg, 6 h, tissue Blood, route gavage, dose level Low
Kindly answer with a numeric value in fL, unit omitted.

For reference, reported MCV for "COC(=O)C1=C(C)NC(C)=C(C(=O)OC)C1c1ccccc1[N+](=O)[O-]" stands at 61.7

For reference, reported MCV for "CN/C(=N/CCSCc1nc[nH]c1C)NC#N" stands at 63.7

For reference, reported MCV for "CNC(=C[N+](=O)[O-])NCCSCc1ccc(CN(C)C)o1" stands at 63.2

For reference, reported MCV for "Cc1nnc2n1-c1ccc(Cl)cc1C(c1ccccc1Cl)=NC2" stands at 64.7

For reference, reported MCV for "O=C(OC[C@H]1O[C@@H](OC(=O)c2cc(O)c(O)c(OC(=O)c3cc(O)c(O)c(O)c3)c2)[C@H](OC(=O)c2cc(O)c(O)c(OC(=O)c3cc(O)c(O)c(O)c3)c2)[C@@H](OC(=O)c2cc(O)c(O)c(OC(=O)c3cc(O)c(O)c(O)c3)c2)[C@@H]1OC(=O)c1cc(O)c(O)c(OC(=O)c2cc(O)c(O)c(O)c2)c1)c1cc(O)c(O)c(OC(=O)c2cc(O)c(O)c(O)c2)c1" stands at 67.3

###

- Species: Rattus norvegicus
- TEST: Open TG-GATES - Regimen: Daily Repeat
- Assay type: toxicity, organism-based, Sprague-Dawley
- Set-up: regimen Daily Repeat, gender Male, age 6 weeks
- COND: in vivo, po, 0 mg/kg, […], tissue Blood, route gavage, dose level Control, time 14 day
OUTCOME MEASURE: Eos
Hi, when you answer, please include the unit after the number. Thanks!

For reference, reported Eos for "CNC(=C[N+](=O)[O-])NCCSCc1ccc(CN(C)C)o1" stands at 1%

For reference, reported Eos for "CCCc1cc(=O)[nH]c(=S)[nH]1" stands at 0.2%

For reference, reported Eos for "COC(=O)C1=C(C)NC(C)=C(C(=O)OC)C1c1ccccc1[N+](=O)[O-]" stands at 1%

For reference, reported Eos for "CN/C(=N/CCSCc1nc[nH]c1C)NC#N" stands at 0.8%

For reference, reported Eos for NC1=NC(=O)C(c2ccccc2)O1 (configuration not stated) stands at 0.8%

For reference, reported Eos for "O=C(OC[C@H]1O[C@@H](OC(=O)c2cc(O)c(O)c(OC(=O)c3cc(O)c(O)c(O)c3)c2)[C@H](OC(=O)c2cc(O)c(O)c(OC(=O)c3cc(O)c(O)c(O)c3)c2)[C@@H](OC(=O)c2cc(O)c(O)c(OC(=O)c3cc(O)c(O)c(O)c3)c2)[C@@H]1OC(=O)c1cc(O)c(O)c(OC(=O)c2cc(O)c(O)c(O)c2)c1)c1cc(O)c(O)c(OC(=O)c2cc(O)c(O)c(O)c2)c1" stands at 1.2%

For reference, reported Eos for "CC(C)NNC(=O)c1ccncc1" stands at 1%

###

- Species on record: Rattus norvegicus
- TEST: Open TG-GATES - Regimen: Single
- Format: toxicity, organism-based, Sprague-Dawley
- Set-up: regimen Single, gender Male, age 6 weeks
- COND: in vivo, po, 100 mg/kg, 24 h, tissue Blood, route gavage, dose level Low
For each entry below, report its Fbg value.
Kindly answer with a numeric value in mg/dL, unit omitted.

For reference, reported Fbg for CN/C(=N/CCSCc1nc[nH]c1C)NC#N [CIMETIDINE] stands at 227.2

For reference, reported Fbg for Cc1nnc2n1-c1ccc(Cl)cc1C(c1ccccc1Cl)=NC2 [TRIAZOLAM] stands at 279

For reference, reported Fbg for O=C(OC[C@H]1O[C@@H](OC(=O)c2cc(O)c(O)c(OC(=O)c3cc(O)c(O)c(O)c3)c2)[C@H](OC(=O)c2cc(O)c(O)c(OC(=O)c3cc(O)c(O)c(O)c3)c2)[C@@H](OC(=O)c2cc(O)c(O)c(OC(=O)c3cc(O)c(O)c(O)c3)c2)[C@@H]1OC(=O)c1cc(O)c(O)c(OC(=O)c2cc(O)c(O)c(O)c2)c1)c1cc(O)c(O)c(OC(=O)c2cc(O)c(O)c(O)c2)c1 [TANNIC ACID] stands at 227.8

For reference, reported Fbg for CNC(=C[N+](=O)[O-])NCCSCc1ccc(CN(C)C)o1 [RANITIDINE] stands at 227

For reference, reported Fbg for COC(=O)C1=C(C)NC(C)=C(C(=O)OC)C1c1ccccc1[N+](=O)[O-] [NIFEDIPINE] stands at 267.8

###

- Organism: Rattus norvegicus
- TEST: Open TG-GATES - Regimen: Single
- Type: toxicity, organism-based, Sprague-Dawley
- Set-up: regimen Single, gender Male, age 6 weeks
- COND: in vivo, po, 300 mg/kg, 24 h, tissue Plasma, route gavage, dose level Middle
OUTCOME MEASURE: gamma-GTP (IU/L)
Kindly answer with a numeric value in IU/L, unit omitted.

For reference, reported gamma-GTP for "O=C(OC[C@H]1O[C@@H](OC(=O)c2cc(O)c(O)c(OC(=O)c3cc(O)c(O)c(O)c3)c2)[C@H](OC(=O)c2cc(O)c(O)c(OC(=O)c3cc(O)c(O)c(O)c3)c2)[C@@H](OC(=O)c2cc(O)c(O)c(OC(=O)c3cc(O)c(O)c(O)c3)c2)[C@@H]1OC(=O)c1cc(O)c(O)c(OC(=O)c2cc(O)c(O)c(O)c2)c1)c1cc(O)c(O)c(OC(=O)c2cc(O)c(O)c(O)c2)c1" stands at 1.2

For reference, reported gamma-GTP for "CN/C(=N/CCSCc1nc[nH]c1C)NC#N" stands at 1.6

###

- Species: Rattus norvegicus
- TEST: Open TG-GATES - Regimen: Daily Repeat
- Assay type: toxicity, organism-based, Sprague-Dawley
- Parameters: regimen Daily Repeat, gender Male, age 6 weeks
- COND: in vivo, po, 300 mg/kg, […], tissue Plasma, route gavage, dose level Middle, time 7 day
OUTCOME MEASURE: A/G
In your answer, state the number alone without any accompanying words.

For reference, reported A/G for "Cc1nnc2n1-c1ccc(Cl)cc1C(c1ccccc1Cl)=NC2" stands at 0.9

For reference, reported A/G for "CNC(=C[N+](=O)[O-])NCCSCc1ccc(CN(C)C)o1" stands at 1.5

For reference, reported A/G for "O=C(OC[C@H]1O[C@@H](OC(=O)c2cc(O)c(O)c(OC(=O)c3cc(O)c(O)c(O)c3)c2)[C@H](OC(=O)c2cc(O)c(O)c(OC(=O)c3cc(O)c(O)c(O)c3)c2)[C@@H](OC(=O)c2cc(O)c(O)c(OC(=O)c3cc(O)c(O)c(O)c3)c2)[C@@H]1OC(=O)c1cc(O)c(O)c(OC(=O)c2cc(O)c(O)c(O)c2)c1)c1cc(O)c(O)c(OC(=O)c2cc(O)c(O)c(O)c2)c1" stands at 1.6

For reference, reported A/G for "CN/C(=N/CCSCc1nc[nH]c1C)NC#N" stands at 1.5

###

- Species: Rattus norvegicus
- TEST: Open TG-GATES - Regimen: Single
- Assay type: toxicity, organism-based, Sprague-Dawley
- Parameters: regimen Single, gender Male, age 6 weeks
- COND: in vivo, po, 300 mg/kg, 3 h, tissue Plasma, route gavage, dose level Middle
OUTCOME MEASURE: PL (mg/dL)
Kindly answer with a numeric value in mg/dL, unit omitted.

For reference, reported PL for "CN/C(=N/CCSCc1nc[nH]c1C)NC#N" stands at 158

For reference, reported PL for "COC(=O)C1=C(C)NC(C)=C(C(=O)OC)C1c1ccccc1[N+](=O)[O-]" stands at 135.4

For reference, reported PL for "CNC(=C[N+](=O)[O-])NCCSCc1ccc(CN(C)C)o1" stands at 141.2

For reference, reported PL for "O=C(OC[C@H]1O[C@@H](OC(=O)c2cc(O)c(O)c(OC(=O)c3cc(O)c(O)c(O)c3)c2)[C@H](OC(=O)c2cc(O)c(O)c(OC(=O)c3cc(O)c(O)c(O)c3)c2)[C@@H](OC(=O)c2cc(O)c(O)c(OC(=O)c3cc(O)c(O)c(O)c3)c2)[C@@H]1OC(=O)c1cc(O)c(O)c(OC(=O)c2cc(O)c(O)c(O)c2)c1)c1cc(O)c(O)c(OC(=O)c2cc(O)c(O)c(O)c2)c1" stands at 148.4

For reference, reported PL for "Cc1nnc2n1-c1ccc(Cl)cc1C(c1ccccc1Cl)=NC2" stands at 169.4
